Biological target: T1, rat IL-25 expressed with a C-terminal myc-myc-hexahistidine tag (rat)
T1 construct: also called Rat IL-25-MMH
T1 chain: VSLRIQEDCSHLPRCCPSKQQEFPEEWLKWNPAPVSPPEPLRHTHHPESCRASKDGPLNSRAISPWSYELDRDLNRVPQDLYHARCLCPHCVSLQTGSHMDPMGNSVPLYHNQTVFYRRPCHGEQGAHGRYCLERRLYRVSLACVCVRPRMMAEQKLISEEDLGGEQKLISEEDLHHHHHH
Test: SPR Biacore, antibody captured, 37C
Listed here: items and their measured pKd.
By convention, pKd is the negative base-10 log of a molar concentration.

Solved entries:
H4H10905P (antibody, human IgG4, V domains shown, H4H prefix = human IgG4 Fc) VH: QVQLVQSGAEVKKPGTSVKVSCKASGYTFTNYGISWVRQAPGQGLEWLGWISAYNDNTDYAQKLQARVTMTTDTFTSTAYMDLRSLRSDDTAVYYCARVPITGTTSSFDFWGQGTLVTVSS VL: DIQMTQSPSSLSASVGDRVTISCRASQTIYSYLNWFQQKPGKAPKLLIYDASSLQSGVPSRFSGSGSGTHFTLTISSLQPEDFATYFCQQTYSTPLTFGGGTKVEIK: 9.42
H4H10871P (antibody, human IgG4, V domains shown, H4H prefix = human IgG4 Fc) VH: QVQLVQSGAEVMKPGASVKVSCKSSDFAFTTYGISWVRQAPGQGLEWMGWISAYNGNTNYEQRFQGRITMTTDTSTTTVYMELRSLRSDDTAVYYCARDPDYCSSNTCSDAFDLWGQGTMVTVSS VL: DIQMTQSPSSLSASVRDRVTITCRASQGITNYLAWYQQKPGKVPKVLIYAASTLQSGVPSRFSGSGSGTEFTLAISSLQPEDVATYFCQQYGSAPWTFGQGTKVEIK: 10.22

Please examine the following record next.
Task item: State, in one line, measured pKd of H4H10863P (antibody, human IgG4, V domains shown, H4H prefix = human IgG4 Fc) VH: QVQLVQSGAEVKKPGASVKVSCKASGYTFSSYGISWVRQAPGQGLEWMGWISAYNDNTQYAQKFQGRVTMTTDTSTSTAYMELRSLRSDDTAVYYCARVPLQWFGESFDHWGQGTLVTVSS VL: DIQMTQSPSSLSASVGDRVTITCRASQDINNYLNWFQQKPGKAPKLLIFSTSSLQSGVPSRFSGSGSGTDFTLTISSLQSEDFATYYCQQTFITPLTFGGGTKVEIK
Reply: 9.14
